Counter-ions that a name gives are not always drawn.
Entries and their melting point values follow.
MEASURED_ATTRIBUTE: melting point

| COMPOUND | DATA_VALUE |
| --- | --- |
| Cl.O=c1[nH]c2nc(NC3CCNCC3)ncc2cc1-c1ccccc1Cl | > 300 °C |
| Cn1c(=O)c(-c2ccccc2Cl)cc2cnc(NC3CCSCC3)nc21 (as salt: HCl) | 232.1 to 233.1 °C |
| Cl.Cn1c(=O)c(-c2ccccc2Cl)cc2cnc(NC3CCN(S(C)(=O)=O)CC3)nc21 | 185 to 194 °C |
| CC(C)(C)Cn1c(=O)c(-c2ccccc2Cl)cc2cnc(NC3CCS(=O)(=O)CC3)nc21.Cl | 223.7 to 230.2 °C |
| Cl.Cn1c(=O)c(-c2ccccc2Cl)cc2cnc(N[C@H]3CC[C@@](C)(O)CC3)nc21 | 156 to 169 °C |

This collection of values is drawn from patent US6506749B2.
